Tested on: S. pneumoniae
Assay: Kill or inhibit growth/proliferation; morphology, biofilm and growth disruption (Tables 5, 6); further: test concentration or dose not given here
Type: cell-based, Streptococcus pneumoniae
Set-up: key: A: Peptide aggregates; B: Less hyphal formation; Clumps; Diffuse clumps and small polyps; F: Diffuse growth; H: Thin; I: Growth inhibition; Microcolony formation; Rippled; Small polyps; Thick; W: Halo formation on top, microlonies on bottom
Metric name: Organism, effect

These recorded examples may help you get a feel for the data.
Substance: PF-640: peptide having multiple activities (chain 1 MGDINRNF; chain 2 MGDINRNF; Peptide with targeting and/or antimicrobial activity)
System name: S. pneumoniae
Metric name: Organism, effect
Reported measurement: S. pneumoniae (I)

Substance: PF-631: peptide having multiple activities (chain 1 LIIYFSKTGNTARATRQI; chain 2 LIIYFSKTGNTARATRQI; Peptide with targeting and/or antimicrobial activity)
System name: S. pneumoniae
Metric name: Organism, effect
Reported measurement: S. pneumoniae (I)

Substance: PF-566: peptide having multiple activities (chain 1 EAQQVTQQLGADFNAITTPTATKV; chain 2 EAQQVTQQLGADFNAITTPTATKV; Peptide with targeting and/or antimicrobial activity)
System name: S. pneumoniae
Metric name: Organism, effect
Reported measurement: S. pneumoniae (D)

Substance: PF-462: peptide having multiple activities (chain 1 KNKTDTL; chain 2 KNKTDTL; Peptide with targeting and/or antimicrobial activity)
System name: S. pneumoniae
Metric name: Organism, effect
Reported measurement: S. pneumoniae (H)

Substance: PF-584: peptide having multiple activities (SYIKNLSNQKFLIAF; Peptide with targeting and/or antimicrobial activity)
System name: S. pneumoniae
Metric name: Organism, effect
Reported measurement: S. pneumoniae (D)

Substance: PF-542: peptide having multiple activities (chain 1 KKDNPSLNDQDKNAVLNLLALAK; chain 2 KKDNPSLNDQDKNAVLNLLALAK; Peptide with targeting and/or antimicrobial activity)
System name: S. pneumoniae
Metric name: Organism, effect
Reported measurement: S. pneumoniae (H)

Substance: KFSDQIDKGQDALKDKLGDL [PF-525]
System name: S. pneumoniae
Metric name: Organism, effect
Reported measurement: S. pneumoniae (H)

Turning to the following substance.
// field: Organism, effect; key: PF-418: peptide having multiple activities (FFLVHFYIRKRKGKVSIFLNYF; Peptide with targeting and/or antimicrobial activity) ; value = S. pneumoniae (D)
